Cited source: patent US20160046618A1

Target Entity: Recombinant Cat D (Homo sapiens (Human))
Sequence (P07339 65-412): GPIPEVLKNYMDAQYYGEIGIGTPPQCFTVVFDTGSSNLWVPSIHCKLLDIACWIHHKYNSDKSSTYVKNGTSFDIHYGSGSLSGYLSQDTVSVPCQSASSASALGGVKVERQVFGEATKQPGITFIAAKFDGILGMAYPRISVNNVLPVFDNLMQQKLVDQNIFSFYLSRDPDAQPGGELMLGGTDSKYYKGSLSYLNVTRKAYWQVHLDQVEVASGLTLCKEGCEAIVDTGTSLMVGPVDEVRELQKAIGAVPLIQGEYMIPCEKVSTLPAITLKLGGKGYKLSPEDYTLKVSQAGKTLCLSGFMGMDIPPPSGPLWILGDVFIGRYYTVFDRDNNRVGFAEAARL
Assay Name: In vitro enzymatic Cathepsin D (Cat D) FRET assay
Type: biochemical
Measurement Setup: read-out: IC50 IP (μM) CatD
Label scheme for IC50: low bin = under 300 µM, mid bin = from 300 µM up to 900 µM, high bin = 900 µM and over

Please review the following examples before continuing.
# Molecule, Assigned Label
rows = [
    ("CC#CCOc1cnc2c(Nc3ccc(F)c([C@@]4(CF)N=C(N)S[C@@]5(/C=C/C(=O)N(C)C)C[C@H]54)c3)nccc2c1 [Example 771]", "low bin"),
    ("COC[C@]12C[C@H]1[C@@](C)(c1cc(NC(=O)c3cnc(OCC4CCC4)cn3)ccc1F)N=C(N)S2 [Example 1054]", "mid bin"),
    ("C#CCOc1cnc(C(=O)Nc2cnc(F)c([C@@]3(C)N=C(N)S[C@@]4(COC)C[C@H]43)c2)c(C)n1 [Example 845]", "high bin"),
]

Problem: Assign a bin to C#CCOc1cnc2c(Nc3cnc(F)c([C@@]4(C)N=C(N)S[C@]5(CO)[C@H]4C5(F)F)c3)nccc2n1 [Example 661]
Solution: mid bin

Problem: Assign a bin to COc1cnc2c(Nc3cc(F)c(F)c([C@@]4(C)N=C(N)S[C@H]5C[C@H]54)c3)nccc2n1 [Example 900]
Solution: mid bin

Problem: Assign a bin to C[C@]1(c2cc(NC(=O)c3ccc(Cl)cn3)ccc2F)N=C(N)S[C@]2(CO)[C@H]1C2(F)F [Example 704]
Solution: low bin

Problem: Assign a bin to Cc1noc(COc2cnc(C(=O)Nc3ccc(F)c([C@@]4(C)N=C(N)S[C@@]5(C(F)F)C[C@@H]45)c3)cn2)n1 [Example 1039]
Solution: mid bin

Problem: Assign a bin to CC(C)(C)NC(=O)[C@]12C[C@H]1[C@@](C)(c1cc(NC(=O)c3cnc(OCC(F)(F)F)cn3)ccc1F)N=C(N)S2 [Example 1002]
Solution: low bin
